experiment: basal S. cerevisiae growth modulation, no modifier, primary screen, OD600, strain BY4716, 24 h, basal condition (AID 1173); conditions: OD600, 24 h, called active from +8 up or from −8 down
Activity calls are given as the source filed them.
Answer with one of the outcomes given here: active, inactive

Sample answers from the record:
CC(C)N1C(=O)[C@@]2(c3ccc([N+](=O)[O-])cc3)CC(=O)N(CC34CC5CC(CC(C5)C3)C4)[C@@H]2c2ccc(CO)cc21 : inactive
C=C(CCCC)C(=O)CC[C@H](OC(=O)c1cccnc1)c1cccc(OCCO)c1 : inactive
O=C1O[C@H](c2ccccc2)[C@H](c2ccccc2)N2[C@H]1[C@@H](C(=O)N1CCN(c3ncccn3)CC1)[C@]1(C(=O)Nc3ccccc31)[C@H]2c1ccc(OCCO)cc1 : inactive
CC(C)=CCCC(C)=CC(O)C1C=CC2C(=O)N(c3ccccc3)C(=O)C2N1Nc1ccccc1 (centres undefined) : inactive
CCOC(=O)C1=C[C@@H](CC)N(S(=O)(=O)c2ccc(C)cc2)[C@H]1c1ccccc1 : inactive

Field: outcome | Entry: `COc1cc(CO)ccc1OC(C)=O` inactive

Query: recorded result category for `COC(=O)[C@@]1(Cc2ccc(F)cc2)[C@H]2c3cc(C(=O)N(C)C)n(CCc4ccccn4)c3C[C@H]2CN1C(=O)c1ccccc1` in this test inactive

In this assay, the call recorded for Cc1ccccc1C(O)C1C=CC2C(=O)N(C)C(=O)C2N1N1CCCCC1 (centres undefined) was what? inactive

Give the logged outcome of this assay for the following compound: CCOc1cc(C(O)C2C=CC3C(=O)N(c4ccccc4)C(=O)C3N2Nc2ccc([N+](=O)[O-])cc2)ccc1O (centres undefined) inactive

How did this test come out for `CC(C)CNC(=O)[C@@]1(c2ccc([N+](=O)[O-])cc2)CC(=O)N(CC23CC4CC(CC(C4)C2)C3)[C@@H]1c1ccc(CO)cc1` ? inactive

Hi, do you know how `COCC1=C2[C@@H](CCc3ccccc3)OB(O)C[C@@H]2[C@@H]2C(=O)N(Cc3ccccc3)C(=O)[C@@H]2C1` came out in this test? inactive

For `CC(C)Cc1ccc(CN2CC[C@@H](NS(=O)(=O)c3ccccc3)C2)cc1` , what call appears in the results of this test? active

Hi team, can someone confirm the assay call for N#Cc1ccc(NN2C(C(O)c3cccs3)C=CC3C(=O)N(c4ccccc4)C(=O)C32)cc1 (centres undefined) ? inactive

# lookup: test call for `O=C1N(CCS(=O)(=O)c2ccccc2)Cc2ccccc2C[C@]12N=C(c1ccc(OCCCO)cc1)O[C@@H]2c1ccccc1` inactive

Which result was noted for this compound in the test: `C=C(CCCC)/C(=C/C[C@H](OC(C)=O)c1ccc(CO)o1)c1cnc2ccccc2c1` inactive

Ref: PubChem BioAssay
